Provenance of the data: patent US9732075B2

target: human orexin-2 receptor (Homo sapiens (Human)); assay: In vitro assay: intracellular calcium measurements (FLIPR), antagonistic activity; conditions: CHO cells expressing human orexin-2 receptor, orexin-A agonist, geometric mean, read-out: IC50 Ox2
Decision: IC50 beneath 90 nM gives class 1; IC50 meeting or exceeding 90 nM gives class 0.

{"Molecule": "COc1cccc(C#Cc2ccccc2C(=O)N2CC[C@H](C)[C@H]2c2nc3c(C)c(Cl)ccc3[nH]2)c1", "Target of assay": "human orexin-2 receptor (Homo sapiens (Human))", "Assigned class": "class 1"}
{"Molecule": "C=C1C[C@@H](c2nc3cc(OC)ccc3[nH]2)N(C(=O)c2nc(C)sc2-c2ccccc2Cl)C1", "Target of assay": "human orexin-2 receptor (Homo sapiens (Human))", "Assigned class": "class 1"}
{"Molecule": "Cc1cccc(-c2ccc(C)cc2C(=O)N2CCC[C@@]2(C)c2nc3cc(C)c(C)cc3n2C)c1", "Target of assay": "human orexin-2 receptor (Homo sapiens (Human))", "Assigned class": "class 1"}
{"Molecule": "C=C1C[C@@H](c2nc3cc(C)c(C)cc3[nH]2)N(C(=O)c2nc(C)sc2-c2ccc(C)c(C)c2)C1", "Target of assay": "human orexin-2 receptor (Homo sapiens (Human))", "Assigned class": "class 1"}
{"Molecule": "COc1ccc(-c2ccccc2C(=O)N2CCC[C@@]2(C)c2nc3cc(C)c(C)cc3[nH]2)cc1", "Target of assay": "human orexin-2 receptor (Homo sapiens (Human))", "Assigned class": "class 1"}
{"Molecule": "COc1ccc2nc([C@@H]3CCCN3C(=O)c3nc(C)sc3-c3cccc(Cl)c3Cl)[nH]c2c1", "Target of assay": "human orexin-2 receptor (Homo sapiens (Human))", "Assigned class": "class 1"}
{"Molecule": "CSc1ccc2[nH]c([C@@H]3CCCN3C(=O)c3nc(C)ccc3-n3cccn3)nc2c1", "Target of assay": "human orexin-2 receptor (Homo sapiens (Human))", "Assigned class": "class 0"}
{"Molecule": "Cc1ccc(-c2ncccn2)c(C(=O)N2CC[C@H](C)[C@H]2c2nc3cc(Cl)c(C)cc3[nH]2)c1", "Target of assay": "human orexin-2 receptor (Homo sapiens (Human))", "Assigned class": "class 0"}
{"Molecule": "Cc1c(Cl)ccc2[nH]c([C@]3(C)CCCN3C(=O)c3nc(-c4cccc(F)c4)sc3-c3ccc(F)cc3)nc12", "Target of assay": "human orexin-2 receptor (Homo sapiens (Human))", "Assigned class": "class 0"}
{"Molecule": "Cc1nc(C(=O)N2CCCC2c2nc3c(Br)cc(F)cc3[nH]2)c(-c2cccc(Cl)c2)s1 (stereo not drawn)", "Target of assay": "human orexin-2 receptor (Homo sapiens (Human))", "Assigned class": "class 1"}
{"Molecule": "Cc1nc(C(=O)N2CCC[C@H]2c2nc3cccc(Cl)c3[nH]2)c(-c2cccc(Cl)c2)s1", "Target of assay": "human orexin-2 receptor (Homo sapiens (Human))", "Assigned class": "class 1"}
{"Molecule": "Cc1c(Cl)ccc2[nH]c([C@]3(C)CCCN3C(=O)c3nc(-c4cccc(C#N)c4)sc3-c3ccc(F)cc3)nc12", "Target of assay": "human orexin-2 receptor (Homo sapiens (Human))", "Assigned class": "class 0"}
{"Molecule": "Cc1ccc(-c2nc(C(=O)N3CCC[C@@]3(C)c3nc4cc(Cl)c(C(F)(F)F)cc4[nH]3)c(-c3ccc(F)cc3)s2)cc1", "Target of assay": "human orexin-2 receptor (Homo sapiens (Human))", "Assigned class": "class 0"}
{"Molecule": "CCn1c([C@]2(C)CCCN2C(=O)c2cc(C)ccc2-c2cccc(F)c2)nc2cc(C)c(C)cc21", "Target of assay": "human orexin-2 receptor (Homo sapiens (Human))", "Assigned class": "class 1"}
{"Molecule": "Cc1ccc(-n2nccn2)c(C(=O)N2CCC[C@H]2c2nc3cccc(Cl)c3[nH]2)c1", "Target of assay": "human orexin-2 receptor (Homo sapiens (Human))", "Assigned class": "class 1"}

---

target: human orexin-2 receptor (Homo sapiens (Human), UniProt O43614); test: In vitro assay: intracellular calcium measurements (FLIPR), antagonistic activity; details: CHO cells expressing human orexin-2 receptor, orexin-A agonist, geometric mean, read-out: IC50 Ox2
Sequence (O43614 whole entry): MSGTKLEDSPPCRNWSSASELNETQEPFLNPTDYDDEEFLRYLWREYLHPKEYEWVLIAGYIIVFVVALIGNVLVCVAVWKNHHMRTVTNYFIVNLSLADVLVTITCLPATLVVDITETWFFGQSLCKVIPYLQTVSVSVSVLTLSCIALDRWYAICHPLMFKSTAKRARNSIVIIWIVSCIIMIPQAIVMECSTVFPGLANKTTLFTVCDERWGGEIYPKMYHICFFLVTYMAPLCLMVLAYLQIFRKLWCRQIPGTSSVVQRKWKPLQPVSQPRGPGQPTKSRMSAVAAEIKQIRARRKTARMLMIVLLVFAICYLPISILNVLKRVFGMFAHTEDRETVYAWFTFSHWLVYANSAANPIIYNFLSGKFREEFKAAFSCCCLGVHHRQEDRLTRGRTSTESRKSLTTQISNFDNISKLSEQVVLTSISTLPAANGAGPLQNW
Decision: IC50 beneath 50 nM gives YES; IC50 meeting or exceeding 50 nM gives NO.

{"Molecule": "COc1ccc(-n2nccn2)c(C(=O)N2C[C@H](OC)C[C@H]2c2nc3ccc(Cl)c(C)c3n2C)c1", "Target of assay": "human orexin-2 receptor (Homo sapiens (Human), UniProt O43614)", "Assigned class": "NO"}
{"Molecule": "CSc1cccc2nc([C@@H]3CCCN3C(=O)c3cncnc3-c3ccc(Cl)c(Cl)c3)[nH]c12", "Target of assay": "human orexin-2 receptor (Homo sapiens (Human), UniProt O43614)", "Assigned class": "YES"}
{"Molecule": "Cc1ccc(-c2cccnc2)c(C(=O)N2CC[C@H](C)[C@H]2c2nc3c(C)c(Cl)ccc3[nH]2)c1", "Target of assay": "human orexin-2 receptor (Homo sapiens (Human), UniProt O43614)", "Assigned class": "NO"}
{"Molecule": "COc1cc2nc([C@]3(C)CCCN3C(=O)c3ccc(C)cc3-n3nccn3)[nH]c2cc1OC", "Target of assay": "human orexin-2 receptor (Homo sapiens (Human), UniProt O43614)", "Assigned class": "NO"}
{"Molecule": "C=C1C[C@@H](c2nc3cccc(C)c3[nH]2)N(C(=O)c2nc(C)sc2-c2cc(C)cc(C)c2)C1", "Target of assay": "human orexin-2 receptor (Homo sapiens (Human), UniProt O43614)", "Assigned class": "YES"}
{"Molecule": "Cc1nc(C(=O)N2CCC[C@@]2(C)c2nc3c(C)c(C)c(Br)cc3[nH]2)c(-c2cccc(Cl)c2Cl)s1", "Target of assay": "human orexin-2 receptor (Homo sapiens (Human), UniProt O43614)", "Assigned class": "YES"}
{"Molecule": "Cc1nc(C(=O)N2CC[C@H](C)[C@H]2c2nc3c(C)cc(Cl)cc3[nH]2)c(-c2ccc(F)cc2)s1", "Target of assay": "human orexin-2 receptor (Homo sapiens (Human), UniProt O43614)", "Assigned class": "NO"}
{"Molecule": "Cc1ccc(-c2nc(C)sc2C(=O)N2CC[C@H](C)[C@H]2c2nc3cc(C)c(C)cc3[nH]2)cc1", "Target of assay": "human orexin-2 receptor (Homo sapiens (Human), UniProt O43614)", "Assigned class": "NO"}
{"Molecule": "C=C1C[C@@H](c2nc3ccc(Cl)c(C)c3[nH]2)N(C(=O)c2nc(C)sc2-c2cccc(OC)c2)C1", "Target of assay": "human orexin-2 receptor (Homo sapiens (Human), UniProt O43614)", "Assigned class": "YES"}
{"Molecule": "C=C1CC(c2nc3c(Br)cccc3[nH]2)N(C(=O)c2cc(C)sc2-c2ccc(C)c(C)c2)C1 (stereo not drawn)", "Target of assay": "human orexin-2 receptor (Homo sapiens (Human), UniProt O43614)", "Assigned class": "YES"}
{"Molecule": "CSc1ccc2nc([C@@H]3CCCN3C(=O)c3cnc(C)nc3-c3cccc(Cl)c3)[nH]c2c1", "Target of assay": "human orexin-2 receptor (Homo sapiens (Human), UniProt O43614)", "Assigned class": "YES"}
{"Molecule": "Cc1ccc(-c2cccnc2)c(C(=O)N2CCC[C@@]2(C)c2nc3ccc(Cl)c(C)c3[nH]2)c1 [Ex. 5.216]", "Target of assay": "human orexin-2 receptor (Homo sapiens (Human), UniProt O43614)", "Assigned class": "YES"}
{"Molecule": "Cc1nc(C(=O)N2CC[C@H](C)[C@H]2c2nc3cc(Cl)c(C)cc3[nH]2)c(-c2ccc(Cl)cc2)s1", "Target of assay": "human orexin-2 receptor (Homo sapiens (Human), UniProt O43614)", "Assigned class": "NO"}
{"Molecule": "CSc1cccc2nc([C@@H]3CCCN3C(=O)c3nc(C)sc3-c3ccc(Br)cc3)[nH]c12", "Target of assay": "human orexin-2 receptor (Homo sapiens (Human), UniProt O43614)", "Assigned class": "YES"}
{"Molecule": "C=C1C[C@@H](c2nc3cc(C(C)(C)C)ccc3[nH]2)N(C(=O)c2ccccc2-n2nccn2)C1", "Target of assay": "human orexin-2 receptor (Homo sapiens (Human), UniProt O43614)", "Assigned class": "YES"}
{"Molecule": "C=C1C[C@@H](c2nc3ccc(Cl)c(C)c3[nH]2)N(C(=O)c2nc(C)ccc2-n2cccn2)C1", "Target of assay": "human orexin-2 receptor (Homo sapiens (Human), UniProt O43614)", "Assigned class": "YES"}
{"Molecule": "Cc1ccc(-n2nccn2)c(C(=O)N2CCC[C@@]2(C)c2nc3cc(Cl)c(C)cc3[nH]2)c1", "Target of assay": "human orexin-2 receptor (Homo sapiens (Human), UniProt O43614)", "Assigned class": "YES"}
{"Molecule": "C=C1CN(C(=O)c2nc(C)sc2-c2ccc(Cl)cc2)C(C)(c2nc3cc(OC)ccc3[nH]2)C1 (racemic)", "Target of assay": "human orexin-2 receptor (Homo sapiens (Human), UniProt O43614)", "Assigned class": "YES"}
{"Molecule": "Cc1ccc(C(=O)N2CC[C@H](C)[C@H]2c2nc3c(C)c(Cl)ccc3[nH]2)c(-c2ccccc2)c1", "Target of assay": "human orexin-2 receptor (Homo sapiens (Human), UniProt O43614)", "Assigned class": "NO"}
{"Molecule": "Cc1nc(C(=O)N2CCC[C@H]2c2nc3cc(Cl)c(C(F)(F)F)cc3[nH]2)c(-c2ccccc2)s1", "Target of assay": "human orexin-2 receptor (Homo sapiens (Human), UniProt O43614)", "Assigned class": "YES"}
{"Molecule": "Cc1nc(C(=O)N2CC[C@H](C)[C@H]2c2nc3cccc(C)c3[nH]2)c(-c2cccc(Cl)c2)s1", "Target of assay": "human orexin-2 receptor (Homo sapiens (Human), UniProt O43614)", "Assigned class": "NO"}
{"Molecule": "COc1ccc(-c2ccc3c(c2)OCO3)c(C(=O)N2CCC[C@@]2(C)c2nc3c(C)c(Cl)ccc3[nH]2)c1F", "Target of assay": "human orexin-2 receptor (Homo sapiens (Human), UniProt O43614)", "Assigned class": "NO"}
{"Molecule": "Cc1c(Cl)ccc2[nH]c([C@@H]3[C@@H](C)CCN3C(=O)c3cc(F)ccc3-c3ccccn3)nc12", "Target of assay": "human orexin-2 receptor (Homo sapiens (Human), UniProt O43614)", "Assigned class": "NO"}
{"Molecule": "Cc1nc(C(=O)N2CCC[C@H]2c2nc3cc(Cl)c(C)cc3[nH]2)c(-c2ccccc2)s1", "Target of assay": "human orexin-2 receptor (Homo sapiens (Human), UniProt O43614)", "Assigned class": "YES"}
{"Molecule": "C=C1C[C@@H](c2nc3cccc(C)c3[nH]2)N(C(=O)c2cc(OC)ccc2-n2nccn2)C1", "Target of assay": "human orexin-2 receptor (Homo sapiens (Human), UniProt O43614)", "Assigned class": "YES"}
{"Molecule": "C=C1CC(c2nc3c(C)cc(C)cc3[nH]2)N(C(=O)c2nc(C3CC3)sc2-c2cccc(C)c2)C1 (stereo not drawn)", "Target of assay": "human orexin-2 receptor (Homo sapiens (Human), UniProt O43614)", "Assigned class": "YES"}
{"Molecule": "Cc1ccc(-c2ccccn2)c(C(=O)N2CC[C@H](C)[C@H]2c2nc3cc(Cl)c(C)cc3[nH]2)c1", "Target of assay": "human orexin-2 receptor (Homo sapiens (Human), UniProt O43614)", "Assigned class": "NO"}
{"Molecule": "CSc1ccc2nc([C@@H]3CCCN3C(=O)c3cnc(C)nc3-c3ccc(Br)c(Cl)c3)[nH]c2c1", "Target of assay": "human orexin-2 receptor (Homo sapiens (Human), UniProt O43614)", "Assigned class": "YES"}
{"Molecule": "CO[C@@H]1C[C@@H](c2nc3c(C)cccc3[nH]2)N(C(=O)c2nc(C)sc2-c2cccc(Cl)c2)C1", "Target of assay": "human orexin-2 receptor (Homo sapiens (Human), UniProt O43614)", "Assigned class": "YES"}
{"Molecule": "Cc1nc(C(=O)N2CC[C@H](C)[C@H]2c2nc3c(C(F)(F)F)cccc3[nH]2)c(-c2cccc(Cl)c2)s1", "Target of assay": "human orexin-2 receptor (Homo sapiens (Human), UniProt O43614)", "Assigned class": "NO"}
